Origin of the recorded values: patent US20260001893A1

Entries annotated with measured log10 of Kd
biological target: Human STAT6 (truncated, aa122-658, with N-terminal His-tag) (Homo sapiens); construct: Human STAT6 (truncated, aa122-658, with N-terminal His-tag, expressed in insect cells); His-tag (N); assay: Surface plasmon resonance (SPR) assay, binding to human STAT6; conditions: Biacore 8K, 25° C, immobilized human STAT6 on CM5 chip, multi-cycle kinetics; geometric mean
Sequence (P42226 122-658): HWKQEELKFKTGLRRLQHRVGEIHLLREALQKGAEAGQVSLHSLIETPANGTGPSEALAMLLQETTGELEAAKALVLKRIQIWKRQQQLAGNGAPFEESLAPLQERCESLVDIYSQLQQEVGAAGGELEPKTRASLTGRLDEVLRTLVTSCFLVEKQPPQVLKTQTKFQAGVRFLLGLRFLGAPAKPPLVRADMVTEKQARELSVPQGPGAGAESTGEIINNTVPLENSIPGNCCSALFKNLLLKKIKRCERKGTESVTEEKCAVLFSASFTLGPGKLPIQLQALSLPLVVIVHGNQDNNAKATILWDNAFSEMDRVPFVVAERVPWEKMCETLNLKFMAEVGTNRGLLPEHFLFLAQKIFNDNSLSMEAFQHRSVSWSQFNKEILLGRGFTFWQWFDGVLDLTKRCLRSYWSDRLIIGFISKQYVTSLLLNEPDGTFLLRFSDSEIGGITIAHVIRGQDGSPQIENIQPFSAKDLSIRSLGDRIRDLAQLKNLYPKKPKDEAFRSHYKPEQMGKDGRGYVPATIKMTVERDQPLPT
measure: log10 of Kd (log10 of the value in µM)

compound	target	measure	reportedMeasurement
CNc1ccn(-c2ccnc3c2cc(CN2CC=C(c4ccc(C(=O)N(C)C)cc4C)CC2)n3C)c(=O)c1 [Example 1m9]	Human STAT6 (truncated, aa122-658, with N-terminal His-tag) (Homo sapiens)	log10 of Kd	-1.93
CNc1ccn(-c2ccnc3c2cc(CN2CC=C(c4ccc(C(=O)N(C)C)cc4Cl)CC2)n3C)c(=O)c1 [Example 1m64]	Human STAT6 (truncated, aa122-658, with N-terminal His-tag) (Homo sapiens)	log10 of Kd	-1.92
CN(C)C(=O)c1ccc(C2CC[N+]([O-])(Cc3cc4c(-n5ccc6c(c5=O)CCN6)ccnc4n3C)CC2)cc1 (stereo not drawn) [Example 1d33]	Human STAT6 (truncated, aa122-658, with N-terminal His-tag) (Homo sapiens)	log10 of Kd	-1.12
CN(C)C(=O)c1ccc(C2CC[N+]([O-])(Cc3cc4c(-n5ccc(N)cc5=O)ccnc4n3C)CC2)cc1 (stereo not drawn) [Example 1d32]	Human STAT6 (truncated, aa122-658, with N-terminal His-tag) (Homo sapiens)	log10 of Kd	-0.48
COCc1c(N)ccn(-c2ccnc3c2cc(CN2CCC(c4ccc(C(=O)N(C)C)cc4)CC2)n3C)c1=O [Example 1d30]	Human STAT6 (truncated, aa122-658, with N-terminal His-tag) (Homo sapiens)	log10 of Kd	-1.60
CNc1ccn(-c2ccnc3c2cc(CN2CC=C(c4ccc(C(=O)N(C)C)cn4)CC2)n3C)c(=O)c1 [Example 1m13]	Human STAT6 (truncated, aa122-658, with N-terminal His-tag) (Homo sapiens)	log10 of Kd	-0.78
CN(C)C(=O)c1ccc(C2CCN(Cc3cc4c(-n5ccc(NC6CC6)cc5=O)ccnc4n3C)CC2)cc1 [Example 1d15]	Human STAT6 (truncated, aa122-658, with N-terminal His-tag) (Homo sapiens)	log10 of Kd	-0.95
CNc1ccn(-c2ccnc3c2cc(CN2CCC(c4ccc(C(=O)N(C)C)cc4C(F)(F)F)CC2)n3C)c(=O)c1 [Example 1d38]	Human STAT6 (truncated, aa122-658, with N-terminal His-tag) (Homo sapiens)	log10 of Kd	-0.24
CCCN(CCC)C(=O)c1ccc(C2CCN(Cc3cc4c(-n5ccc(NC)cc5=O)ccnc4n3C)CC2)cc1 [Example 1d11]	Human STAT6 (truncated, aa122-658, with N-terminal His-tag) (Homo sapiens)	log10 of Kd	-1.42
CNc1ccn(-c2ccnc3c2cc(CN2CCC(c4ccc(C(=O)N(C)C)cn4)CC2)n3C)c(=O)c1 [Example 1m11]	Human STAT6 (truncated, aa122-658, with N-terminal His-tag) (Homo sapiens)	log10 of Kd	-0.95
CNc1ccn(-c2ccnc3c2cc(CN2CCC(c4ccc(C(=O)N(C)C)cc4C)CC2)n3C)c(=O)c1 [Example 1d25]	Human STAT6 (truncated, aa122-658, with N-terminal His-tag) (Homo sapiens)	log10 of Kd	-1.16
CNc1ccn(-c2ccnc3c2cc(CN2CC=C(c4c(C)cc(C(=O)N(C)C)cc4C)CC2)n3C)c(=O)c1 [Example 1m12]	Human STAT6 (truncated, aa122-658, with N-terminal His-tag) (Homo sapiens)	log10 of Kd	-2.06
CNc1ccn(-c2ccnc3c2cc(CN2CCC(c4c(C)cc(C(=O)N(C)C)cc4C)CC2)n3C)c(=O)c1 [Example 1d27]	Human STAT6 (truncated, aa122-658, with N-terminal His-tag) (Homo sapiens)	log10 of Kd	-1.80
CNc1cc(=O)n(-c2ccnc3c2cc(CN2CCC(c4ccc(C(=O)N(C)C)cc4)CC2)n3C)cn1 [Example 1ac1]	Human STAT6 (truncated, aa122-658, with N-terminal His-tag) (Homo sapiens)	log10 of Kd	0.61
CNc1ccn(-c2ccnc3c2cc(CN2CC=C(c4ncc(C(=O)N(C)C)cc4C)CC2)n3C)c(=O)c1 [Example 1m14]	Human STAT6 (truncated, aa122-658, with N-terminal His-tag) (Homo sapiens)	log10 of Kd	-1.22
COC(=O)Nc1ccn(-c2ccnc3c2cc(CN2CCC(c4ccc(C(=O)N(C)C)cc4)CC2)n3C)c(=O)c1 [Example 1d6]	Human STAT6 (truncated, aa122-658, with N-terminal His-tag) (Homo sapiens)	log10 of Kd	-0.82
CN(C)C(=O)c1ccc(C2CCN(Cc3cc4c(-n5ccc6[nH]nc(C(F)(F)F)c6c5=O)ccnc4n3C)C(=O)C2)cc1 (single isomer, unassigned) [Example 1ab1]	Human STAT6 (truncated, aa122-658, with N-terminal His-tag) (Homo sapiens)	log10 of Kd	-1.21
CNc1ccn(-c2ccnc3c2cc(CN2CC[C@@H](c4ccc(C(=O)N(C)C)cc4)[C@@H](F)C2)n3C)c(=O)c1 (single isomer, unassigned) [Example 1f7]	Human STAT6 (truncated, aa122-658, with N-terminal His-tag) (Homo sapiens)	log10 of Kd	-1.66
CN(C)C(=O)c1ccc(C2CCN(Cc3cc4c(-n5ccc6[nH]nc(C(F)(F)F)c6c5=O)ccnc4n3C)C(=O)C2)cc1 (single isomer, unassigned) [Example 1ab2]	Human STAT6 (truncated, aa122-658, with N-terminal His-tag) (Homo sapiens)	log10 of Kd	-1.42
CNc1ccn(-c2ccnc3c2cc(CN2CC=C(c4ncc(C(=O)N(C)C)cc4F)CC2)n3C)c(=O)c1 [Example 1m67]	Human STAT6 (truncated, aa122-658, with N-terminal His-tag) (Homo sapiens)	log10 of Kd	-1.48
CNc1ccn(-c2ccnc3c2cc(CN2CCC(c4ncc(C(=O)N(C)C)cc4C)CC2)n3C)c(=O)c1 [Example 1m15]	Human STAT6 (truncated, aa122-658, with N-terminal His-tag) (Homo sapiens)	log10 of Kd	-0.24
[2H]C([2H])([2H])N(C(=O)c1ccc(C2CCN(Cc3cc4c(-n5ccc(NC)cc5=O)ccnc4n3C)CC2)c(C)c1)C([2H])([2H])[2H] [Example 1d26]	Human STAT6 (truncated, aa122-658, with N-terminal His-tag) (Homo sapiens)	log10 of Kd	-1.16
CNc1ccn(-c2ccnc3c2cc(CN2CCC(c4ccc(C(=O)N(C)C)cc4F)CC2)n3C)c(=O)c1 [Example 1d34]	Human STAT6 (truncated, aa122-658, with N-terminal His-tag) (Homo sapiens)	log10 of Kd	-1.85
CN(C)C(=O)c1ccc(C2CCN(Cc3cc4c(-n5ccc6c(c5=O)CCN6)ccnc4n3C)CC2)cc1 [Example 1d23]	Human STAT6 (truncated, aa122-658, with N-terminal His-tag) (Homo sapiens)	log10 of Kd	-1.66
CNc1ccn(-c2ccnc3c2cc(CN2CC=C(c4ccc(C(=O)N(C)C)cc4)CC2)n3C)c(=O)c1 [Example 1m35]	Human STAT6 (truncated, aa122-658, with N-terminal His-tag) (Homo sapiens)	log10 of Kd	-1.46
CNc1ccn(-c2ccnc3c2cc(CN2CCC(c4ccc(C(=O)N(C)C)cc4)CC2)n3C)c(=O)c1 [Example 1d3]	Human STAT6 (truncated, aa122-658, with N-terminal His-tag) (Homo sapiens)	log10 of Kd	-1.74
[2H]C([2H])([2H])N(C(=O)c1ccc(C2=CCN(Cc3cc4c(-n5ccc(NC)cc5=O)ccnc4n3C)CC2)c(C)c1)C([2H])([2H])[2H] [Example 1m10]	Human STAT6 (truncated, aa122-658, with N-terminal His-tag) (Homo sapiens)	log10 of Kd	-2.02

---

test system: Eotaxin-3 (CCL26) release in human whole blood stimulated with IL-4; assay: Human whole blood eotaxin-3 assay (IL-4 stimulated eotaxin-3 release); type: cell-based; conditions: human whole blood stimulated with recombinant human IL-4, 48 h; inhibition of eotaxin-3 release; given for test compounds with >80% Emax; geometric mean

molecule	EC50
CNc1ccn(-c2ccnc3c2cc([C@@H](C)N2CC[C@H](c4c(C)cc(C(=O)N(C)C)cc4F)C(F)(F)C2)n3C)c(=O)c1 (single isomer, unassigned)	610 nM
CNc1ccn(-c2ccnc3c2cc([C@H](C)N2CC[C@@H](c4c(C)cc(C(=O)N(C)C)cc4F)C(F)(F)C2)n3C)c(=O)c1 (stereo in doubt)	13.6 nM

---

test system: Eotaxin-3 (CCL26) release in human whole blood stimulated with IL-4; assay: Human whole blood eotaxin-3 assay (IL-4 stimulated eotaxin-3 release); format: cell-based; settings: Homo sapiens, 48 h, human whole blood stimulated with recombinant human IL-4, 48 h; given for test compounds with <80% Emax; geometric mean

molecule	Emax
CN(C)C(=O)c1ccc(C2CCN(Cc3cc4c(-n5ccc6[nH]nc(C(F)(F)F)c6c5=O)ccnc4n3C)C(=O)C2)cc1 (single isomer, unassigned)	30 to 40%
CN(C)C(=O)c1ccc(C2CCN(Cc3cc4c(-n5ccc6c(c5=O)CCN6)ccnc4n3C)CC2)cc1	70 to 80%
[2H]C([2H])([2H])N(C(=O)c1ccc(C2=CCN(Cc3cc4c(-n5ccc6c(c5=O)CCN6)ccnc4n3C)CC2)cc1)C([2H])([2H])[2H]	30 to 40%
CN(C)C(=O)c1ccc(C2=CCN(Cc3cc4c(-n5ccc6c(c5=O)CCN6)ccnc4n3C)CC2)cn1	20 to 30%
CNc1ccn(-c2ccnc3c2cc([C@H](C)N2CC=C(c4c(C)cc(C(=O)N(C)C)nc4C)CC2)n3C)c(=O)c1 (single isomer, unassigned)	< 20%
